Source listed as PubChem BioAssay AID1421.

Parameter: PGE2 EC50 with compound. Scope: all listed entries.
- experimental.target: Prostaglandin E2 receptor EP2 subtype (Homo sapiens)
- assay.name: EP2 receptor modulators, dose response, cell-based, human EP2, PGE2 EC50 shift (AID 1421)
- condition.info: EP2-expressing cells, PGE2 EC50 shift by compound; measured here: PGE2 EC50 at 6.7 uM compound
# number then unit; no other words

Previously resolved entries follow.
[[record]]
molecule = "O=C1CC(O)(c2ccccc2)C(c2ccccc2)=C1c1ccccc1 (stereo unspecified)"
experimental_value = "0.87 nM"

[[record]]
molecule = "O=S(=O)(c1cccs1)N1CN(Cc2cccs2)c2nc3ccccc3nc21"
experimental_value = "1.64 nM"

[[record]]
molecule = "Cc1ccccc1NC(=O)CSc1nc(COc2ccccc2)nc2ccccc12"
experimental_value = "1.24 nM"


# PGE2 EC50 with compound of `Cn1c(=O)c2c(ncn2CCSS(=O)(=O)O)n(C)c1=O` = 0.97 nM

Record `Cc1cc(C)n(-c2nc(C)nc3c2cnn3-c2ccccc2)n1` , field PGE2 EC50 with compound: 1.43 nM

Record `CCOc1ccc(OCC)c(NC(=O)CN2CCN(c3ccc(C)cc3C)CC2)c1` , field PGE2 EC50 with compound: 0.88 nM

Given item `Cc1occc1-c1nnc(SCC(=O)Nc2ccccc2N2CCCCC2)n1C` , the value recorded as its PGE2 EC50 with compound is 2.71 nM

// field: PGE2 EC50 with compound; key: `Cc1noc(C)c1CSc1nc2sc3c(c2c(=O)n1C)CCCC3` ; value = 1.46 nM

----------
- experimental.target: Prostaglandin E2 receptor EP2 subtype (Homo sapiens) (UniProt P43116)
- Sequence (P43116 whole entry, looked up): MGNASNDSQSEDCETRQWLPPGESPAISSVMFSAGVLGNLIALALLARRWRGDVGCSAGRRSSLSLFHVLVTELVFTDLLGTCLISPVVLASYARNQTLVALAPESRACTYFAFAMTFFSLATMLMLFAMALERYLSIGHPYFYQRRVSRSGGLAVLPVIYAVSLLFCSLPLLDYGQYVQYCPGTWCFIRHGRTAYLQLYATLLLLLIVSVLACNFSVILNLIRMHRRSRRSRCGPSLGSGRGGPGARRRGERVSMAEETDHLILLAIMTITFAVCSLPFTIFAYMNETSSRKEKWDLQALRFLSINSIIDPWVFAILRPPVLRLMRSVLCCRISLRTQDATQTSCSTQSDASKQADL
- assay.name: EP2 receptor modulators, dose response, cell-based, human EP2, PGE2 EC50 shift (AID 1421)
- condition.info: EP2-expressing cells, PGE2 EC50 shift by compound; measured here: PGE2 EC50 at 6.7 uM compound
observation.type: PGE2 EC50 with compound (nM)
A number alone suffices; assume nM.

[[record]]
molecule = "CCOC(=O)C(CC)Sc1ncnc2c1nnn2-c1ccc(F)cc1 (stereo unspecified)"
experimental_value = 0.33

[[record]]
molecule = "O=C(Nc1cccc(Cl)c1N1CCCC1)c1ccc(Br)o1"
experimental_value = 1.61

[[record]]
molecule = "Cc1ccc(-c2csc3ncnc(N4CCc5ccccc5C4)c23)cc1"
experimental_value = 0.93

[[record]]
molecule = "CCCCN1C=C(C(=O)OC)C(c2ccccc2Cl)C(C(=O)OC)=C1"
experimental_value = 2.72

[[record]]
molecule = "Cc1cc(C)c(S(=O)(=O)N(C2=NCCS2)S(=O)(=O)c2c(C)cc(C)cc2C)c(C)c1"
experimental_value = 0.99


// molecule `COc1ccc(C(=O)Nc2cc(C)nn2-c2nc3ccccc3[nH]2)c(OC)c1` , assay Prostaglandin E2 receptor EP2 subtype (Homo sapiens) (UniProt P43116), PGE2 EC50 with compound value: 0.91

GET /values?item= `COc1ccc(-c2cc(C(F)(F)F)nc(N3CCCCC3)n2)cc1OC` &system= Prostaglandin E2 receptor EP2 subtype (Homo sapiens) (UniProt P43116) returns PGE2 EC50 with compound: 0.57

Bench note, Prostaglandin E2 receptor EP2 subtype (Homo sapiens) (UniProt P43116): `CCOC(=O)Cc1csc(NC(=O)c2cc(=O)c3ccccc3o2)n1` , PGE2 EC50 with compound reads 1.36

Summary line: `COC(=O)c1ccc(CSc2ncnc3c2oc2ccccc23)o1` , Prostaglandin E2 receptor EP2 subtype (Homo sapiens) (UniProt P43116), reported PGE2 EC50 with compound = 2.45

The recorded PGE2 EC50 with compound with Prostaglandin E2 receptor EP2 subtype (Homo sapiens) (UniProt P43116) for `CCOCC(=O)Nc1cc(C(F)(F)F)ccc1Oc1cccc(Br)c1` was 0.49

Item `C=CCn1c(=O)c(C(=O)NCCc2ccccc2)c(O)c2ccccc21` was tested on Prostaglandin E2 receptor EP2 subtype (Homo sapiens) (UniProt P43116); the reported PGE2 EC50 with compound is 2.43

----------
Here the recorded PGE2 EC50 with compound is given for each entry.
- experimental.target: Prostaglandin E2 receptor EP2 subtype (Homo sapiens)
- assay.name: EP2 receptor modulators, dose response, cell-based, human EP2, PGE2 EC50 shift (AID 1421)
- condition.info: EP2-expressing cells, PGE2 EC50 shift by compound; measured here: PGE2 EC50 at 6.7 uM compound
Give a bare numeral; the unit nM is implied.

# example entries with known answers
[[record]]
compound = "Cc1ccc(-n2cc(-c3ccccc3)c3c(N4CCOCC4)ncnc32)cc1"
experimental_value = 1.99

[[record]]
compound = "Cn1c(=O)c(NC2CCCCC2)c2c3c(cccc31)C(=O)c1ccccc1-2"
experimental_value = 0.55

[[record]]
compound = "O=C(c1cccs1)N1N=C(c2ccccc2)CC1c1ccc(O)cc1 (configuration not stated)"
experimental_value = 0.83

[[record]]
compound = "Cc1ccccc1NC1=C(C(=O)c2ccccc2)N(C)S(=O)(=O)c2ccccc21"
experimental_value = 1.01

[[record]]
compound = "CC(=O)c1ccc(-n2c(C)ccc2-c2ccccc2)cc1"
experimental_value = 2.52

[[record]]
compound = "COc1ccc(-c2nn3c(-c4ccccc4)nnc3s2)cc1"
experimental_value = 0.66

[[record]]
compound = "Cc1nc2c(-c3ccccc3)c(C)nn2c(C)c1CCC(=O)N1CCOCC1"
experimental_value = 1.09

[[record]]
compound = "O=C1C2C(c3ccccc3)C=CC(c3ccccc3)C2C(=O)N1c1ccncc1 (configuration not stated)"
experimental_value = 0.65


For record O=C1C2C3c4ccccc4C(c4ccccc43)[C@@H]2c2nc3ccccc3n21 (some centres not stated) the listed PGE2 EC50 with compound is 0.7

In plain terms, CCC(c1nnnn1Cc1ccco1)N(Cc1cc2cc(C)cc(C)c2[nH]c1=O)CC1CCCO1 (configuration not stated) has a documented PGE2 EC50 with compound of 1.56

Record `C=C(C)COc1ccc2c(c1)CC[C@@H]1[C@H]3C/C(=N/O)C(=O)[C@]3(C)CC[C@@H]21` , field PGE2 EC50 with compound: 1.03

Looking up `Cc1ccc(C)n1-c1ccc(N(C)C)cc1` , I see its PGE2 EC50 with compound listed as 0.75

----------
- experimental.target: Prostaglandin E2 receptor EP2 subtype (Homo sapiens)
- assay.name: EP2 receptor modulators, dose response, cell-based, human EP2, PGE2 EC50 shift (AID 1421)
- condition.info: EP2-expressing cells, PGE2 EC50 shift by compound; measured here: PGE2 EC50 at 6.7 uM compound
observation.type: PGE2 EC50 with compound
Units required after the number.

# annotated cases, reported PGE2 EC50 with compound shown
[[record]]
molecule = "CCC(=O)N1CCN(c2nc(-c3ccccc3)c3c(c2C#N)CCCC3)CC1"
experimental_target = "Prostaglandin E2 receptor EP2 subtype (Homo sapiens)"
experimental_value = "0.91 nM"

[[record]]
molecule = "c1ccc(-c2nn3c(-c4ccccc4)nnc3s2)cc1"
experimental_target = "Prostaglandin E2 receptor EP2 subtype (Homo sapiens)"
experimental_value = "0.84 nM"

[[record]]
molecule = "CCCCNCC(=O)Nc1sc(C)c(C)c1C(=O)OCC"
experimental_target = "Prostaglandin E2 receptor EP2 subtype (Homo sapiens)"
experimental_value = "2.33 nM"

[[record]]
molecule = "Cn1c(=O)[nH]c(=O)c2c1nc(N1CCCCCC1)n2Cc1cccc2ccccc12"
experimental_target = "Prostaglandin E2 receptor EP2 subtype (Homo sapiens)"
experimental_value = "2.64 nM"

[[record]]
molecule = "CCOC(=O)c1c(NC(=O)CSc2nnc(C)s2)sc2c1CCC(C)C2 (stereo unspecified)"
experimental_target = "Prostaglandin E2 receptor EP2 subtype (Homo sapiens)"
experimental_value = "0.95 nM"

[[record]]
molecule = "Clc1ccccc1C1NCc2ccccc2-n2cccc21 (stereo unspecified)"
experimental_target = "Prostaglandin E2 receptor EP2 subtype (Homo sapiens)"
experimental_value = "0.34 nM"

[[record]]
molecule = "COc1cc(C2Oc3cc(C4Oc5cc(O)cc(O)c5C(=O)C4O)ccc3OC2CO)ccc1O (stereo unspecified)"
experimental_target = "Prostaglandin E2 receptor EP2 subtype (Homo sapiens)"
experimental_value = "1.15 nM"

[[record]]
molecule = "O=C(O)CSc1ccc2ccccc2n1"
experimental_target = "Prostaglandin E2 receptor EP2 subtype (Homo sapiens)"
experimental_value = "2.79 nM"

[[record]]
molecule = "Cc1cccc(C)c1NC(=O)CSc1nc(COc2ccccc2)nc2ccccc12"
experimental_target = "Prostaglandin E2 receptor EP2 subtype (Homo sapiens)"
experimental_value = "0.82 nM"

[[record]]
molecule = "O=c1[nH]c2ccc(Cl)cc2c(-c2ccccc2)c1N1CCOCC1"
experimental_target = "Prostaglandin E2 receptor EP2 subtype (Homo sapiens)"
experimental_value = "1.13 nM"


Pending molecule:
Reported PGE2 EC50 with compound (Prostaglandin E2 receptor EP2 subtype (Homo sapiens)) for entry `CCOC(=O)c1cc(CC)sc1NC(=O)c1cc(OC)c(OC)c(OC)c1` is 0.82 nM
